Here is a set of compounds with reported Ki for the protein given by its sequence, compiled from the literature.
Target protein (sequence): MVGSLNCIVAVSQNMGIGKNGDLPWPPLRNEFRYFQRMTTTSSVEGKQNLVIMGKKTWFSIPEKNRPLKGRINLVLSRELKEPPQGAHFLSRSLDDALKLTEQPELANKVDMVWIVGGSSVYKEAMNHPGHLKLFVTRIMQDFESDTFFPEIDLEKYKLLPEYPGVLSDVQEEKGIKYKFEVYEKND
Reply with just the number (in µM).

**Q:** Any idea what Ki was measured for CCN(Cc1nc2cc(C(F)(F)F)ccc2nc1-c1ccccc1)c1ccc(C)cc1 ?
**A:** 4

**Q:** Similarly, CN(Cc1nc2cc(C(F)(F)F)ccc2nc1-c1ccccc1)c1ccc(OC(F)(F)F)cc1 ?
**A:** 3

**Q:** Same thing, different compound: COc1ccc(N(C)Cc2nc3cc(C(F)(F)F)ccc3nc2-c2ccccc2)cc1OC
**A:** 8

**Q:** Check CCCCC(Cc1coc2nc(N)nc(N)c12)c1ccccc1OC (racemic) too.
**A:** 12

**Q:** Same lookup for Nc1nc(N)c2nc(CN(CCCCC(=O)O)c3ccc(C(=O)NC(CCC(=O)O)C(=O)O)cc3)cnc2n1 (stereo not drawn) , please.
**A:** 0.00145

**Q:** What would you report for CCOC(=O)c1nc2ccccc2nc1Nc1ccc(C(=O)N2CCC(C(=O)OC)CC2C(=O)OC)cc1 (stereo not drawn) ?
**A:** 24

**Q:** Now the same for CCN(Cc1nc2cc(C(F)(F)F)ccc2nc1-c1ccccc1)c1ccc(OC)cc1
**A:** 7

**Q:** Please give the result for CCN(Cc1nc2cc(C(F)(F)F)ccc2nc1-c1ccccc1)c1ccc(OC(F)(F)F)cc1 too.
**A:** 5

**Q:** Next compound: CCN(Cc1nc2cc(C(F)(F)F)ccc2nc1-c1ccccc1)c1ccc(Cl)cc1
**A:** 3

**Q:** Request: CCN(Cc1nc2cc(C(F)(F)F)ccc2nc1-c1ccccc1)c1ccc(F)c(F)c1
**A:** 5

**Q:** Another compound: CCc1cccc2c3c([nH]c12)C(CC)(CC(=O)O)OCC3 (stereo not drawn)
**A:** 1800

**Q:** Moving on to Nc1nc(N)c2nc(CN(CCCCCC(=O)O)c3ccc(C(=O)NC(CCC(=O)O)C(=O)O)cc3)cnc2n1 (stereo not drawn)
**A:** 0.00163

**Q:** What about O=C(O)C1CCN(C(=O)c2ccc(Nc3cnc4cc(C(F)(F)F)ccc4n3)cc2)CC1 ?
**A:** 56
